Kindly supply the reported speed of sound values for the records listed here.
Assay: mn = molality of the nth substance listed, in mol/kg
Conditions: 298.15 K; 84.51 kPa; Liquid; Frequency=3 MHz; Sing-around technique in a fixed-path interferometer; m1 = 0.035
The figure you give is taken to be in m/s; do not add the unit.

For [Cl-].[K+] [potassium chloride] + O , what is its reported speed of sound? 1498.7

I am curious: what speed of sound value has been reported for C[N+](C)(C)C.[Cl-] [tetramethylammonium chloride] + O ? 1500.1

I am curious: what speed of sound value has been reported for [Cl-].[Cl-].[Mg+2] [magnesium chloride] + O ? 1501.3

Reported speed of sound for O=C([O-])CC(O)(CC(=O)[O-])C(=O)[O-].[Na+].[Na+].[Na+] [trisodium citrate] + O : what is it? 1504.5

Entry O=S(=O)([O-])[O-].[Na+].[Na+] [sodium sulfate] + O has what speed of sound? 1502.6

Which measured speed of sound value corresponds to [Cl][Fe]([Cl])[Cl] [ferric chloride] + O ? 1500.8

// speed of sound lookup, key: Cl.N [ammonium chloride (NH4Cl)] + O 1498.4

If you can, please state the reported speed of sound value of O=C([O-])[O-].[Na+].[Na+] [sodium carbonate] + O . 1503

Quick one: speed of sound of O=[N+]([O-])[O-].[Na+] [sodium nitrate] + O ? 1498.3

###

Test: mn = molality of the nth substance listed, in mol/kg
Settings: 293.15 K; 84.51 kPa; Liquid; Vibrating tube method; m1 = 0.035
± gives the expanded uncertainty stated by the source.
parameterMeasured: mass density
I'd appreciate it if you included the unit after the number.

Please give the measured mass density for this compound: O=[N+]([O-])[O-].[Na+] [sodium nitrate] + O 1000.21 ± 0.2 kg/m3

Quick check: mass density of [Cl-].[K+] [potassium chloride] + O ? 999.873 ± 0.2 kg/m3

Reported mass density for [Cl][Fe]([Cl])[Cl] [ferric chloride] + O : what is it? 1003.05 ± 0.2 kg/m3

State the recorded mass density for this entry: O=S(=O)([O-])[O-].[Na+].[Na+] [sodium sulfate] + O 1002.73 ± 0.26 kg/m3

May I ask what mass density has been recorded for [Cl-].[Cl-].[Mg+2] [magnesium chloride] + O ? 1001.48 ± 0.26 kg/m3

###

Assay: mn = molality of the nth substance listed, in mol/kg
Conditions: 298.15 K; 84.51 kPa; Liquid; Vibrating tube method; m1 = 0.035
parameterMeasured: mass density (kg/m3)
I only need the number, in kg/m3, no unit after it.

Consider the compound shown here: [Cl][Fe]([Cl])[Cl] [ferric chloride] + O What is its recorded mass density? 1001.87

Entry under review: [Cl-].[Cl-].[Mg+2] [magnesium chloride] + O . Reported mass density? 1000.31

Entry under review: O=[N+]([O-])[O-].[Na+] [sodium nitrate] + O . Reported mass density? 999.017

Given O=C([O-])CC(O)(CC(=O)[O-])C(=O)[O-].[Na+].[Na+].[Na+] [trisodium citrate] + O , state its recorded mass density. 1003.53

Param item = O=S(=O)([O-])[O-].[Na+].[Na+] [sodium sulfate] + O ; retrieve measured mass density. 1001.52

Need mass density, item C[N+](C)(C)C.[Cl-] [tetramethylammonium chloride] + O 997.12

Consider the compound shown here: Cl.N [ammonium chloride (NH4Cl)] + O What is its recorded mass density? 997.645

Please give the measured mass density for this compound: O=C([O-])[O-].[Na+].[Na+] [sodium carbonate] + O 1000.88

Suppose we examine the compound [Cl-].[K+] [potassium chloride] + O ; what mass density value has been reported? 998.698

I would be grateful if you could share the reported mass density for [Cl-].[Na+] [sodium chloride] + O . 998.457

###

Experiment: mn = molality of the nth substance listed, in mol/kg
Conditions: 308.15 K; 84.51 kPa; Liquid; Vibrating tube method; m1 = 0.035
parameterMeasured: mass density (kg/m3)
Numbers only here, please. The scale is kg/m3.

Would you kindly share the measured mass density for O=[N+]([O-])[O-].[Na+] [sodium nitrate] + O ? 995.954

Form field: reported mass density of [Cl][Fe]([Cl])[Cl] [ferric chloride] + O 998.83

Item under review: C[N+](C)(C)C.[Cl-] [tetramethylammonium chloride] + O . Reported mass density? 994.093

Please give the measured mass density for this compound: Cl.N [ammonium chloride (NH4Cl)] + O 994.624

GET /values?readout=mass density&item= O=C([O-])CC(O)(CC(=O)[O-])C(=O)[O-].[Na+].[Na+].[Na+] [trisodium citrate] + O 1000.42

Name the reported mass density value associated with the compound O=C([O-])[O-].[Na+].[Na+] [sodium carbonate] + O 997.791

Record request: mass density value, item [Cl-].[Na+] [sodium chloride] + O 995.419

Dear colleague, I am looking for the recorded mass density of the following compound: [Cl-].[K+] [potassium chloride] + O 995.661

Fill blank: measured mass density of the compound [Cl-].[Cl-].[Mg+2] [magnesium chloride] + O is ____. 997.276

Entry O=S(=O)([O-])[O-].[Na+].[Na+] [sodium sulfate] + O : reported mass density = ? 998.436

###

Provide the recorded mass density for the entries that follow.
Assay: mn = molality of the nth substance listed, in mol/kg
Details: 288.15 K; 84.51 kPa; Liquid; Vibrating tube method; m1 = 0.035
Dear colleague, please return just the value in kg/m3, with no unit written.

Given the compound [Cl-].[Na+] [sodium chloride] + O , what is its reported mass density? 1000.55

State the recorded mass density for this entry: Cl.N [ammonium chloride (NH4Cl)] + O 999.719

mass density for O=C([O-])[O-].[Na+].[Na+] [sodium carbonate] + O ? 1003.04

So what's the measured mass density for this one? [Cl-].[K+] [potassium chloride] + O 1000.79

// mass density lookup, key: O=S(=O)([O-])[O-].[Na+].[Na+] [sodium sulfate] + O 1003.68

Which mass density reading was recorded for the compound C[N+](C)(C)C.[Cl-] [tetramethylammonium chloride] + O ? 999.201

Recorded mass density of [Cl-].[Cl-].[Mg+2] [magnesium chloride] + O , please. 1002.4

So what's the measured mass density for this one? O=[N+]([O-])[O-].[Na+] [sodium nitrate] + O 1001.14

Give its mass density value. Item: [Cl][Fe]([Cl])[Cl] [ferric chloride] + O 1003.96

Look up mass density: O=C([O-])CC(O)(CC(=O)[O-])C(=O)[O-].[Na+].[Na+].[Na+] [trisodium citrate] + O 1005.71

###

Assay: mn = molality of the nth substance listed, in mol/kg
Conditions: 313.15 K; 84.51 kPa; Liquid; Frequency=3 MHz; Sing-around technique in a fixed-path interferometer; m1 = 0.035
Give measured speed of sound for each item. Keep answers brief.
Return type: number; implicit unit m/s.

Which speed of sound value is on record for Cl.N [ammonium chloride (NH4Cl)] + O ? 1530.4

speed of sound lookup needed for O=C([O-])CC(O)(CC(=O)[O-])C(=O)[O-].[Na+].[Na+].[Na+] [trisodium citrate] + O , thanks. 1536

Data request, read-out speed of sound, for O=C([O-])[O-].[Na+].[Na+] [sodium carbonate] + O 1534.6

If you can, please state the reported speed of sound value of O=S(=O)([O-])[O-].[Na+].[Na+] [sodium sulfate] + O . 1534.2

Query: speed of sound; subject: [Cl-].[K+] [potassium chloride] + O 1530.5

# input compound: O=[N+]([O-])[O-].[Na+] [sodium nitrate] + O ; wanted: its speed of sound 1530.1

Which speed of sound value is on record for [Cl][Fe]([Cl])[Cl] [ferric chloride] + O ? 1532.4

Find the recorded speed of sound belonging to C[N+](C)(C)C.[Cl-] [tetramethylammonium chloride] + O and report it. 1531.7

Query (compound): [Cl-].[Na+] [sodium chloride] + O ; field requested: speed of sound 1530.9

###

Assign speed of sound to each entry below.
Assay: mn = molality of the nth substance listed, in mol/kg
Conditions: 288.15 K; 84.51 kPa; Liquid; Frequency=3 MHz; Sing-around technique in a fixed-path interferometer; m1 = 0.035
The answer is to be given in m/s; state only the numeric part.

Record request: speed of sound value, item O=C([O-])CC(O)(CC(=O)[O-])C(=O)[O-].[Na+].[Na+].[Na+] [trisodium citrate] + O 1474.7

Need speed of sound, item O=[N+]([O-])[O-].[Na+] [sodium nitrate] + O 1468.2

Using the record for [Cl-].[Cl-].[Mg+2] [magnesium chloride] + O , report its speed of sound. 1471.1

Please look up its speed of sound: C[N+](C)(C)C.[Cl-] [tetramethylammonium chloride] + O 1470.2

Entry Cl.N [ammonium chloride (NH4Cl)] + O has what speed of sound? 1468.2

// data source = the NIST ThermoML archive (doi:10.1016/j.jct.2014.03.001)
